Molecular target: RAC-alpha serine/threonine-protein kinase (Homo sapiens) (UniProt P31749);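 further: reported values are mean inhibition figures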
Sequence (P31749 whole entry): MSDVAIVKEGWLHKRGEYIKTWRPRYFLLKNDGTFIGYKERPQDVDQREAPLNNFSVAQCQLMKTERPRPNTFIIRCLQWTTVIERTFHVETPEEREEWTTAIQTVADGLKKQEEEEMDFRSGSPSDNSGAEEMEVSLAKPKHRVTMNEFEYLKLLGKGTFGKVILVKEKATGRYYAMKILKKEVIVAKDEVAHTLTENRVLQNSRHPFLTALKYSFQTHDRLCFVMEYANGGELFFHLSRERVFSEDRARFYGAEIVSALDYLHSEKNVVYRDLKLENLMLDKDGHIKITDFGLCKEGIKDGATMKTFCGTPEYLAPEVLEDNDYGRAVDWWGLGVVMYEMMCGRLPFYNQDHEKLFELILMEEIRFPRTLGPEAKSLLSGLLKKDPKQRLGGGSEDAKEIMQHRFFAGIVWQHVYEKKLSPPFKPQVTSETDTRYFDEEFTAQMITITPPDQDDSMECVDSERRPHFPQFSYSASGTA
Details: at 0.1 µM
In this section we review reported inhibition values for a set of compounds.
experimental.readout: inhibition

{"molecular.string": "COc1ccc2cc(-c3c(-c4ccncc4)nc(-c4ccc(S(C)(=O)=O)cc4C)n3C)ccc2c1", "reported.measurement": "1.8%"}
{"molecular.string": "C[C@@H](Oc1cc(-n2cnc3ccc(OC4CCN(C)CC4)cc32)sc1C(N)=O)c1ccccc1Cl", "reported.measurement": "-2.97%"}
{"molecular.string": "NC(=O)c1ccc(Oc2nccc(-c3c(-c4ccc(F)cc4)ncn3C3CCNCC3)n2)cc1", "reported.measurement": "1.54%"}

* * *

Target: Fibroblast growth factor receptor 4 (Homo sapiens);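 further: values are mean percent inhibition of FGFR4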
Conditions: at 0.1 µM
Let's look at some molecules and their measured inhibition.
experimental.readout: inhibition (%)

{"molecular.string": "Fc1ccc(-c2ncn(CCCN3CCOCC3)c2-c2ccncc2)cc1", "reported.measurement": -3}
{"molecular.string": "c1ccc(Oc2ccc(Nc3ncc(-c4ccccc4)o3)cc2)cc1", "reported.measurement": 2.77}
{"molecular.string": "CN(C)CCCNc1nccc(-c2c(-c3ccc(F)cc3)nn3cc(C(F)(F)F)ccc23)n1", "reported.measurement": -3.68}
{"molecular.string": "COc1cccc(/C=N/Nc2ncnc3c2cnn3-c2cccc(OC)c2)c1", "reported.measurement": 2.44}
{"molecular.string": "COc1cc2ncn(-c3cc(OCc4ccccc4C(F)(F)F)c(C(C)=O)s3)c2cc1OC", "reported.measurement": -0.33}
{"molecular.string": "COC(=O)Nc1nc2ccc(Sc3ccc(NC(=O)Nc4cc(C(F)(F)F)ccc4F)cc3)cc2[nH]1", "reported.measurement": 3.12}
{"molecular.string": "COc1ccc2cc(-c3c(-c4ccncc4)nc(-c4ccc(S(C)(=O)=O)cc4C)n3C)ccc2c1", "reported.measurement": -7.02}
{"molecular.string": "O=C1NC(=O)C(c2cccc(Cl)c2)=C1Nc1ccc(Cl)c(C(=O)O)c1", "reported.measurement": -1.89}
{"molecular.string": "COc1cc2ncn(-c3cc(OCc4cccs4)c(C(N)=O)s3)c2cc1OC", "reported.measurement": -0.52}
{"molecular.string": "COc1cc(N2CCN(C(C)C)CC2)ccc1Nc1nc(Nc2ccc(F)cc2C(=O)NC[C@@H](O)CO)c2cc[nH]c2n1", "reported.measurement": -2.86}
{"molecular.string": "CN(C)c1ccc2c(c1)/C(=C/Nc1ccc(S(N)(=O)=O)cc1)C(=O)N2", "reported.measurement": 1.99}
{"molecular.string": "O=C(Nc1n[nH]c2nc(-c3ccc(O)cc3)c(Br)cc12)C1CC1", "reported.measurement": 0.04}
{"molecular.string": "CN(C)CCOc1ccc(-c2cc(-c3ccc4c(c3)CCC4=NO)c(-c3ccncc3)o2)cc1", "reported.measurement": 1.99}
{"molecular.string": "COc1cccc(-n2cnc3c(N/N=C/c4ccncc4)ncnc32)c1", "reported.measurement": -4.06}
{"molecular.string": "CCc1cccc(CC)c1/C=C/c1cncc(C(=O)NC)c1", "reported.measurement": -1.16}
{"molecular.string": "C[C@@H](Oc1cc(-n2cnc3ccc(OCC4CCN(C)CC4)cc32)sc1C(N)=O)c1ccccc1Cl", "reported.measurement": 3.93}
{"molecular.string": "COc1ccc(C2=C(N3CCc4ccccc43)C(=O)NC2=O)cc1", "reported.measurement": 2.43}
{"molecular.string": "NC(=O)Cc1ccccc1Oc1nccc(-c2c(-c3ccc(F)cc3)ncn2C2CCNCC2)n1", "reported.measurement": 0.37}
{"molecular.string": "CCN(CC)Cc1ccc(Nc2nccc(-c3cnn4ncccc34)n2)cc1", "reported.measurement": -1.71}
{"molecular.string": "COc1cc(Nc2ncc(-c3ccccc3)o2)cc(OC)c1OC", "reported.measurement": -0.19}
{"molecular.string": "CN1CCN(CCCNc2nc3ccc(Oc4ccc(NC(=O)Nc5cc(C(F)(F)F)ccc5F)cc4)cc3[nH]2)CC1", "reported.measurement": -2.64}
{"molecular.string": "O=C(NCC1CC1)c1ccc(-c2cccc(C(=O)NC3CC3)c2)cc1", "reported.measurement": -0.02}
{"molecular.string": "Cc1ccc(NC(=O)c2ccoc2)cc1-c1ccc(C(=O)NCC2CC2)cc1", "reported.measurement": 1.47}
